tested on: ZIKV-induced caspase 3/7 activity in human astrocytes; test: Caspase 3/7 activity assay, ZIKV-infected human astrocytes; format: cell-based; details: ZIKV-infected human astrocytes
Where a name gives a salt, the structure may show the parent alone.
Caspase 3 (efficacy, %) Astrocyte values by entry
Respond with the bare value in %.

Answered examples (2):
[[record]]
compound = "C/C1=C2/[N-][C@H]([C@H](CC(N)=O)[C@@]2(C)CCC(=O)NC[C@@H](C)OP(=O)([O-])O[C@H]2[C@@H](O)[C@@H](n3cnc4cc(C)c(C)cc43)O[C@@H]2CO)[C@]2(C)N=C(/C(C)=C3N=C(/C=C4N=C1[C@@H](CCC(N)=O)C\\4(C)C)[C@@H](CCC(N)=O)[C@]\\3(C)CC(N)=O)[C@@H](CCC(N)=O)[C@]2(C)CC(N)=O.[Co+3].[OH-] [Hydroxocobalamin]"
tested_target = "ZIKV-induced caspase 3/7 activity in human astrocytes"
reported_measurement = 83.4

[[record]]
compound = "O=C1NC(=O)/C(=C/c2ccc(-c3ccc(F)cc3O)o2)S1"
tested_target = "ZIKV-induced caspase 3/7 activity in human astrocytes"
reported_measurement = 37.5


Now consider the entry below.
## Task Report its Caspase 3 (efficacy, %) Astrocyte with ZIKV-induced caspase 3/7 activity in human astrocytes as the test system: Nc1ccc(-c2ccc3ccccc3n2)cc1 [BF-170 hydrochloride]
## Result 118

----------
system: HEK293 cells; test: Toxicity IC50 (cell-killing activity) of the NS1 TR-FRET screen; assay type: cell-based, human; conditions: Homo sapiens, HEK293, read-out: Tox IC50
READOUT: pIC50
On this scale, pIC50 is minus log10 of a concentration expressed in M (mol/L).

## Task Report its pIC50 with HEK293 cells as the test system: CC[C@H](CC#N)OC(=O)N[C@@H](C)c1cccc(NC(=O)Nc2ccc(-c3cnco3)c(OC)c2)c1
## Result 4.70

----------
test system: ZIKV-induced caspase 3/7 activity in hNPCs; assay: Caspase 3/7 activity assay, ZIKV-infected hNPCs; format: cell-based; settings: Homo sapiens; ZIKV-infected hNPCs; read-out: Caspase 3 (IC50, uM) NPCs
Structures can show the parent of a compound that is named as a salt.
Please respond with T when measured IC50 is strictly beneath 10 µM, and with F in all other cases.

The examples below pair each entry with its known result.
[[record]]
compound = "COc1ccc([C@@H]2CC(=O)c3c(O)cc(O)cc3O2)cc1O"
tested_target = "ZIKV-induced caspase 3/7 activity in hNPCs"
discrete_label = "F"

[[record]]
compound = "COc1ccc(/C=C/C(=O)Nc2ccccc2C(=O)O)cc1OC"
tested_target = "ZIKV-induced caspase 3/7 activity in hNPCs"
discrete_label = "F"

[[record]]
compound = "O=C(/C=C/C=C/c1ccc2c(c1)OCO2)N1CCCCC1"
tested_target = "ZIKV-induced caspase 3/7 activity in hNPCs"
discrete_label = "F"


## Task Determine whether this compound shows IC50 lower than 10 µM (ties excluded): Nc1nc2ccc([N+](=O)[O-])cc2s1
## Result F

## Task Determine whether this compound shows IC50 lower than 10 µM (ties excluded): O=C(Nc1ccc(C(=O)O)c(O)c1)c1ccccc1
## Result T

## Task Determine whether this compound shows IC50 lower than 10 µM (ties excluded): CC(=O)Oc1cccc2c1C(=O)c1c(OC(C)=O)cc(C(=O)O)cc1C2=O
## Result F

## Task Determine whether this compound shows IC50 lower than 10 µM (ties excluded): O=C(Nc1ccc([N+](=O)[O-])cc1Cl)c1cc(Cl)ccc1O [Niclosamide]
## Result T

## Task Determine whether this compound shows IC50 lower than 10 µM (ties excluded): Cc1ccc(O)c(-n2nc3ccccc3n2)c1
## Result T

## Task Determine whether this compound shows IC50 lower than 10 µM (ties excluded): Nc1ccc(/N=N/c2ccccc2)c(N)n1 [Phenazopyridine hydrochloride]
## Result F
